Here we list compounds with their recorded GI50 when tested on MCF.
Measure: GI50 (nM)

{"Compound": "COc1c(C)cc2c(c1O)[C@@H]1C3[C@@H]4SC[C@]5(NCCc6c5[nH]c5ccccc65)C(=O)COC[C@@H](c5c6c(c(C)c(OC(=O)C(F)(F)C(F)(F)C(F)(F)F)c54)OCO6)N3[C@@H](O)[C@H](C2)N1C (some centres unmarked)", "Target system": "MCF", "Result": 2.2}
{"Compound": "COc1c(C)cc2c(c1O)[C@@H]1C3[C@@H]4SC[C@]5(NCCc6c5[nH]c5cc(F)ccc65)C(=O)COC[C@@H](c5c6c(c(C)c(OC(C)=O)c54)OCO6)N3[C@@H](O)[C@H](C2)N1C (some centres unmarked)", "Target system": "MCF", "Result": 9.06}
{"Compound": "COc1c(C)cc2c(c1O)[C@@H]1C3[C@@H]4SC[C@]5(NCCc6c5[nH]c5ccc(O)cc65)C(=O)COC[C@@H](c5c6c(c(C)c(OC(C)=O)c54)OCO6)N3[C@@H](O)[C@H](C2)N1C (some centres unmarked)", "Target system": "MCF", "Result": 2.59}
{"Compound": "COc1ccc2[nH]c3c(c2c1)CCN[C@]31CS[C@@H]2c3c(OC(C)=O)c(C)c4c(c3[C@H](COCC1=O)N1C2[C@H]2c3c(cc(C)c(OC)c3O)C[C@@H]([C@@H]1O)N2C)OCO4 (some centres unmarked)", "Target system": "MCF", "Result": 0.255}
{"Compound": "COc1c(C)cc2c(c1O)[C@@H]1C3[C@@H]4SC[C@]5(NCCc6c5[nH]c5c(OCc7ccccc7)cccc65)C(=O)COC[C@@H](c5c6c(c(C)c(OC(C)=O)c54)OCO6)N3[C@@H](O)[C@H](C2)N1C (some centres unmarked)", "Target system": "MCF", "Result": 5.81}
